test: Solubility in DMSO; type: physicochemical; settings: organic solvent or mixture
Measured attribute: solubility

q: Could you tell me which solubility is on file for O/N=C1\c2ccccc2-c2nc3ccccc3nc21 [IQ-1, 11H-indeno[1,2-b]quinoxalin-11-one oxime] ?
a: ~10 mM
